assay: Inhibition of HCV 2a NS3/4A protease; parameters: species or system Hepatitis C virus subtype 2a
observationType: Ki

Problem: Need Ki, item C=C[C@@H]1C[C@]1(NC(=O)[C@@H]1C[C@@H]2CN1C(=O)[C@H]([C@@H](C)CC)Nc1nc(cs1)CCC/C=C/c1cccc3c1CN(C3)C(=O)O2)C(=O)NS(=O)(=O)C1CC1.O=C(O)C(F)(F)F
Result: 0.4 nM

* * *

experiment: Cmax in Beagle dog at 2 mg/kg, iv; type: ADME, organism-based, Canis lupus familiaris; parameters: dose 2 mg/kg, route intravenous; details: in vivo
observationType: Cmax (µM)
Express the result in µM but write the number alone.

Problem: Need Cmax, item C=C[C@@H]1C[C@]1(NC(=O)[C@@H]1C[C@@H]2CN1C(=O)[C@H]([C@@H](C)CC)Nc1nc(cs1)CCC/C=C/c1cccc3c1CN(C3)C(=O)O2)C(=O)[N-]S(=O)(=O)C1CC1.[K+]
Result: 0.06
